Value source: PubChem BioAssay (NCI)

test system: SK-MEL-28 melanoma; assay: NCI tumour cell line growth inhibition, 48 h
measure.name: TGI

Fill in: TGI of "O=C(c1ccco1)c1nc2ccc(C(F)(F)F)cc2[n+]([O-])c1C(F)(F)F" is ___
> 100 µM

---

A collection of molecules and their measured TGI
system: LOX IMVI melanoma; test: NCI tumour cell line growth inhibition, 48 h

COC(=O)C1C(C(=O)OC)N(Cc2ccccc2)C(=O)N1Cc1ccccc1 (centres undefined)    > 100 µM
CC1=C(C(=O)Nc2ccc3[nH]ncc3c2)C(c2ccc3ccccc3c2)CC(=O)N1 (centres undefined)    > 25 µM
Cc1ccc(S(=O)(=O)N(CCOc2ccc(/C(N)=N/Cl)cc2)CCOc2ccc(/C(N)=N\Cl)cc2)cc1    > 100 µM

# query: TGI | item OCCC1(O)CCC(O)CC1 (centres undefined) | system: LOX IMVI melanoma
> 100 µM
